# tested-system: HLA-A*24:02
# test-name: IEDB peptide-MHC binding, purified MHC/competitive/fluorescence; bounds were set here for any values at or beyond the usual limits of such assays
# particulars: source organism: Monodelphis domestica
assay-readout: IC50

Value of measured IC50 for the entry FLLPILSQIYT : ≥ 20 µM

----------
# tested-system: HLA-B*07:02
# test-name: IEDB peptide-MHC binding, purified MHC/direct/fluorescence; filed as Kd, often an IC50 or EC50 that approximates it; bounds were set here for any values at or beyond the usual limits of such assays
# particulars: source organism: Influenza A virus (A/Puerto Rico/8/34/Mount Sinai(H1N1))
assay-readout: pKd
Friendly reminder that pKd comes from taking -log10 of the concentration in mol/L.

Value of measured pKd for the entry IPKRNRSIL : 7.82
